Values compiled from patent US20240092761A1.

- System: OVCAR-3 cells
- Run description: Cell Growth Inhibition, OVCAR-3 (CellTiterGlo, 6 days)
- Type: cell-based
- Condition notes: Homo sapiens, 144 h; OVCAR-3, 6-day treatment, CellTiterGlo 2.0
pIC50: −log10 of the molar value.
Below, each entry is listed alongside its reported pIC50.

CS(=O)(=O)N1CCC(Nc2ncc3cccc(C4CCCC4)c3n2)CC1    5.70 to 6.30

Ask: Please state recorded pIC50 (tested on OVCAR-3 cells) of "FC(F)c1cc(N2CC3(CCNC3)C2)c2nc(NC3CCN(c4ncc(C5CC5)cn4)CC3)ncc2c1"
Reply: 5.70 to 6.30

Ask: Please state recorded pIC50 (tested on OVCAR-3 cells) of "O=S(=O)(C1CC1)N1CCC(Nc2ncc3cc(C(F)F)cc(N4CC5(CCCNC5)C4)c3n2)CC1"
Reply: 6.30 to 6.70

Ask: Please state recorded pIC50 (tested on OVCAR-3 cells) of "CN1CC2(CCN(c3cc(C(F)F)cc4cnc(NC5CCN(S(C)(=O)=O)CC5)nc34)C2)C1"
Reply: 5.70 to 6.30

Ask: Please state recorded pIC50 (tested on OVCAR-3 cells) of "CS(=O)(=O)N1Cc2ccc(Nc3ncc4cc(C(F)F)cc(N5CC6(C5)CN(C5CC5)C6)c4n3)cc2C1"
Reply: < 5.70

Ask: Please state recorded pIC50 (tested on OVCAR-3 cells) of CC(=O)N1CCC2(CCN(c3cc(C(F)F)cc4cnc(Nc5cnn(C(C)C)c5)nc34)C2)C1 (stereo not shown)
Reply: 5.70 to 6.30

Ask: Please state recorded pIC50 (tested on OVCAR-3 cells) of CS(=O)(=O)N1CC[C@@H](Nc2ncc3cc(C(F)F)cc(N4CC(F)(F)C5(CNC5)C4)c3n2)[C@H](O)C1 (racemic)
Reply: < 5.70

Ask: Please state recorded pIC50 (tested on OVCAR-3 cells) of CC(=O)N1CCC2(CCN(c3cccc4cnc(NC5CCN(S(C)(=O)=O)CC5)nc34)C2)C1 (stereo not shown)
Reply: < 5.70

Ask: Please state recorded pIC50 (tested on OVCAR-3 cells) of "CN1CC2(CCN(c3cc(C(F)F)cc4cnc(NC5CCN(S(=O)(=O)C6CC6)CC5)nc34)C2)C1"
Reply: 5.70 to 6.30

Ask: Please state recorded pIC50 (tested on OVCAR-3 cells) of "CS(=O)(=O)N1CCC(Nc2ncc3cccc(N4CCC5(CNC5)C4)c3n2)CC1"
Reply: 5.70 to 6.30

Ask: Please state recorded pIC50 (tested on OVCAR-3 cells) of "CN1Cc2cc(F)c(Nc3ncc4cc(C(F)F)cc(N5CC6(CNC6)C5)c4n3)cc2C1"
Reply: < 5.70

Ask: Please state recorded pIC50 (tested on OVCAR-3 cells) of "CS(=O)(=O)N1CCC(Nc2ncc3cc(C(F)F)cc(N4CC5(CNCC5(F)F)C4)c3n2)CC1"
Reply: 5.70 to 6.30

Ask: Please state recorded pIC50 (tested on OVCAR-3 cells) of CCN1CC2(C1)CN(c1ccc(Nc3ncc4cccc(N5CCC6(CCN(C(C)=O)C6)C5)c4n3)nc1)C2 (stereo not shown)
Reply: < 5.70

----------
- Tested system: CDK1/Cyclin B1 (Homo sapiens (Human), UniProt P06493)
- Sequence (P06493 whole entry): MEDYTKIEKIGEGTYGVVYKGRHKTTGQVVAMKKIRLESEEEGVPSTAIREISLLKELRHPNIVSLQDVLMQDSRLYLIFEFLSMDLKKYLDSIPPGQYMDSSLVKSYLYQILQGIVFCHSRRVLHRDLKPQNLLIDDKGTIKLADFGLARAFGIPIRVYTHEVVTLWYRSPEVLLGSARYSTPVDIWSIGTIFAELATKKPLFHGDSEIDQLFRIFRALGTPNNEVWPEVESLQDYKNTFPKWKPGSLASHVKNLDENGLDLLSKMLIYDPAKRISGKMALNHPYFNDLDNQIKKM
- Sequence (P14635 whole entry partner): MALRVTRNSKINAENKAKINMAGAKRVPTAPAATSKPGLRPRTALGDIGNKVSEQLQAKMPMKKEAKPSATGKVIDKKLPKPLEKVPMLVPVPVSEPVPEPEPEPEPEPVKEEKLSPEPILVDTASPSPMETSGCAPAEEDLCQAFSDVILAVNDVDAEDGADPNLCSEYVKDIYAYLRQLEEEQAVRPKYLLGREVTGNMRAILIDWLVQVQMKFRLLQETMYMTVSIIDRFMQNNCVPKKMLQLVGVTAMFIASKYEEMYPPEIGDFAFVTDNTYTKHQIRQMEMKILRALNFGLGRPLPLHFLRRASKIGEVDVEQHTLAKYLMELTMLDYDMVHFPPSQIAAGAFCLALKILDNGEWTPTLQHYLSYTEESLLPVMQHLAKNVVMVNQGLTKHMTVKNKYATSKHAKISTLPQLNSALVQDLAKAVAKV
- Run description: CDK1/Cyclin B1 ADP-Glo Kinase Assay
- Condition notes: 80 uM ATP
Below, each entry is listed alongside its reported IC50.

// known answers, use as guide
CC(=O)N1CCC2(CCN(c3cccc4cnc(NC5CCN(S(C)(=O)=O)CC5)nc34)C2)C1 (centres unmarked)    > 2 µM
CS(=O)(=O)N1CCC(Nc2ncc3cccc(N4CC(CC#N)C4)c3n2)CC1    0.2 to 0.5 µM
CN1Cc2ccc(Nc3ncc4cc(C(F)F)cc(N5CC6(C5)CN(C5CC5)C6)c4n3)cc2C1    > 2 µM
CS(=O)(=O)N1CCC(Nc2ncc3cccc(N4CC5(CCOCC5)C4C4CC4)c3n2)CC1 (centres unmarked)    > 2 µM

Could you now look at the following compound, please?
Ask: GET /values?readout=IC50&item= "CS(=O)(=O)N1CCC(Nc2ncc3cccc(N4CCCC4)c3n2)CC1"
Reply: 0.5 to 2 µM

----------
- Tested system: CDK6/Cyclin D3 (Homo sapiens (Human), UniProt Q00534)
- Sequence (Q00534 whole entry): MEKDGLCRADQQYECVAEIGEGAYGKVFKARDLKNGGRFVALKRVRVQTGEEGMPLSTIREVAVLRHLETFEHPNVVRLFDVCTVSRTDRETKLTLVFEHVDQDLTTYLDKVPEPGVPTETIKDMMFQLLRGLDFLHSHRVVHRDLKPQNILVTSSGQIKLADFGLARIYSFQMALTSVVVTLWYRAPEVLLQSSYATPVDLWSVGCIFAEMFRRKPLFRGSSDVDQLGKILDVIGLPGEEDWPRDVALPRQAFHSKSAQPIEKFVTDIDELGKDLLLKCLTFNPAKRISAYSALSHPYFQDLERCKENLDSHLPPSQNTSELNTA
- Sequence (P30281 whole entry partner): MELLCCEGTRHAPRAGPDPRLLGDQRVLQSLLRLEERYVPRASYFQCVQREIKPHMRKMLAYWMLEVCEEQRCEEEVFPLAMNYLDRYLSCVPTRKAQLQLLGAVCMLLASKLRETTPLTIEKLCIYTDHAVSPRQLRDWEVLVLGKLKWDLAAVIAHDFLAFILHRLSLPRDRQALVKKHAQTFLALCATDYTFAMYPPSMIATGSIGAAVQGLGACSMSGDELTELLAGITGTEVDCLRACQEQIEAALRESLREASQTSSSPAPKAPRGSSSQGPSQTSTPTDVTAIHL
- Run description: CDK6/Cyclin D3 ADP-Glo Kinase Assay
- Condition notes: 100 uM ATP, read-out: CDK6/ CyclinD3 IC50
Measurement kind: IC50

// known answers, use as guide
COCCN1CCC2(C1)CN(c1cccc3cnc(NC4CCN(S(C)(=O)=O)CC4)nc13)C2 [Example 39]    500 to 2000 nM
CN1Cc2ccc(Nc3ncc4cc(C(F)F)cc(N5CC6(C5)CN(C5CC5)C6)c4n3)cc2C1 [Example 65]    < 200 nM
CC(=O)N1CCC2(CCN(c3cccc4cnc(NC5CCN(S(C)(=O)=O)CC5)nc34)C2)C1 (centres unmarked) [Example 6]    < 200 nM

Ask: GET /values?readout=IC50&item= CN1Cc2cc(F)c(Nc3ncc4cc(C(F)F)cc(N5CC6(CNC6)C5)c4n3)cc2C1 [Example 61]
Reply: 500 to 2000 nM

Ask: GET /values?readout=IC50&item= O=S(=O)(N1CCC(Nc2ncc3cc(C(F)F)cc(N4CC5(CCNC5)C4)c3n2)CC1)C1(C(F)F)CC1 [Example 93]
Reply: < 200 nM

Ask: GET /values?readout=IC50&item= CS(=O)(=O)N1CCC(Nc2ncc3cccc(N4CCC5(C4)CC(F)(F)C5)c3n2)CC1 [Example 3]
Reply: < 200 nM

Ask: GET /values?readout=IC50&item= O=S(=O)(N1CCC(Nc2ncc3cc(C(F)F)cc(N4CCC5(CNC5)C4)c3n2)CC1)C1(C(F)F)CC1 [Example 88]
Reply: < 200 nM

Ask: GET /values?readout=IC50&item= CN1CCN(C2CCN(c3cccc4cnc(NC5CCN(S(C)(=O)=O)CC5)nc34)C2)CC1 (centres unmarked) [Example 29]
Reply: > 2000 nM

Ask: GET /values?readout=IC50&item= COCCN1CC2(C1)CN(c1cc(C(F)F)cc3cnc(NC4CCN(S(=O)(=O)C5CC5)CC4)nc13)C2 [Example 76]
Reply: < 200 nM

Ask: GET /values?readout=IC50&item= O=S(=O)(N1CCC(Nc2ncc3cccc(N4CC5(CNCCC5(F)F)C4)c3n2)CC1)C1(C(F)F)CC1 [Example 105]
Reply: 200 to 500 nM

----------
- Tested system: CDK6/Cyclin D3 (Homo sapiens (Human), UniProt Q00534)
- Run description: CDK6/Cyclin D3 ADP-Glo Kinase Assay
- Type: biochemical
- Condition notes: 100 uM ATP, read-out: CDK6/ CyclinD3 IC50
Measurement kind: IC50

// known answers, use as guide
CS(=O)(=O)N1CCC(Nc2ncc3cccc(C4CC(CO)(C(F)F)C4)c3n2)CC1 (stereo not drawn) [Example 121]    < 200 nM
CS(=O)(=O)N1CCC(Nc2ncc3cc(C(F)F)cc(C4CC5(CCN(CC(F)F)C5)C4)c3n2)CC1 (stereo not drawn) [Example 100]    < 200 nM

Could you now look at the following compound, please?
Ask: GET /values?readout=IC50&item= CS(=O)(=O)N1CCC(Nc2ncc3cccc(N4CC5(CCNC5)C4)c3n2)CC1 [Example 31]
Reply: 200 to 500 nM

----------
- Tested system: CDK6/Cyclin D3 (Homo sapiens (Human), UniProt Q00534)
- Run description: CDK6/Cyclin D3 ADP-Glo Kinase Assay
- Condition notes: 100 uM ATP, read-out: CDK6/ CyclinD3 IC50
pIC50: −log10 of the molar value.
Measurement kind: pIC50

CS(=O)(=O)N1CCC(Nc2ncc3cccc(N4CC5(CCOCC5)C4C4CC4)c3n2)CC1 (stereo not shown)    < 5.70
CS(=O)(=O)N1CCC(Nc2ncc3cc(C(F)(F)F)cc(C4CC(O)(C5CC5)C4)c3n2)CC1 (stereo not shown)    > 6.70
CN1CCC2(C1)CN(c1cccc3cnc(NC4CCN(S(C)(=O)=O)CC4)nc13)C2    6.30 to 6.70

Could you now look at the following compound, please?
Ask: GET /values?readout=pIC50&item= "CS(=O)(=O)N1CCC(Nc2ncc3cc(C(F)F)cc(N4CC(F)(F)C5(CNC5)C4)c3n2)CC1"
Reply: > 6.70
